Value source: paper PMC11040352

Assay: Ex vivo biodistribution in mice with MM1S tumor xenografts
Conditions: both sexes, NSG, mouse, pancreas, 2 mg/kg, 60 min p.i.; MM1S xenograft mice with blocking dose (2 mg kg^−1 AJ206); read-out: uptake in pancreas
endpointLabel: tissue uptake at 1 h (%ID/g)
Only the number, expressed in %ID/g, is required.

Report tissue uptake at 1 h for CC[C@H](C)[C@@H]1NC(=O)[C@@H]2CCCN2C(=O)[C@H](Cc2ccccc2)NC(=O)[C@H](CC(=O)O)NC(=O)[C@H](C)NC(=O)[C@@H]2CSCc3cc(cc(c3)CSC[C@H](NC(=O)[C@H](C)NC(=O)CCOCCOCCOCCNC(=O)CN3CCN(CC(=O)O)CCN(CC(=O)O)CC3)C(=O)N[C@@H](C(C)C)C(=O)N3CCC[C@H]3C(=O)N2)CSC[C@@H](C(N)=O)NC(=O)[C@H](Cc2ccc(O)cc2)NC(=O)[C@H](Cc2c[nH]c3ccccc23)NC1=O [[^68Ga]Ga‐AJ206, metal not drawn] please. 0.64
